In this section, each of the compounds is paired with its reported GI50.
# Tested on: SF-539
# measurementDescription: NCI tumour cell line growth inhibition, 48 h
Calls of active or inactive are those of the source. No stated cut-off is given here; in the data, active = GI50 up to about 1.1 µM and inactive = higher.

compound	GI50
O=C1NC(=S)S/C1=C/c1ccco1	> 100 µM (inactive)
O=C(Nc1ccc(-c2cn3ccccc3n2)cc1)c1cc(Br)ccc1O	> 100 µM (inactive)
C#C[C@]1(O)CCC2C3CCc4cc(Oc5nc(F)nc(-c6c7cc8ccccc8cc7c7n6CCS7)n5)ccc4C3CCC21C (some centres undefined)	30.1 µM (inactive)
SC1=NC2=C(CSC/C2=C\c2ccccc2)C(c2ccccc2)N1 (centres undefined)	76.6 µM (inactive)

Value source: ChEMBL document CHEMBL1201862
